These entries and their values trace back to ChEMBL document CHEMBL1155627.

- System: Human immunodeficiency virus 1
- Assay notes: Antiviral activity against HIV1
- Format: functional, organism-based
Activity calls are given as the source filed them. No cut-off for these calls is given here.

{"Molecule": "CC(C)=CCc1c(-c2ccc(O)cc2O)oc2cc3c(c(O)c2c1=O)CCC(C)(C)O3 [DIHYDROCUDRAFLAVONE B]", "Activity": "inactive"}
{"Molecule": "CC(C)=CCc1c(O)c(CC=C(C)C)c2oc3c(O)ccc(O)c3c(=O)c2c1O", "Activity": "inactive"}
{"Molecule": "CC(C)=CCc1c(O)cc2oc(-c3ccc(O)cc3O)c(CC=C(C)C)c(=O)c2c1O", "Activity": "inactive"}
{"Molecule": "CC(C)=CCc1c(O)c(CC=C(C)C)c2oc3c(O)cccc3c(=O)c2c1O", "Activity": "inactive"}
